TARGET_OF_ASSAY: UniProtKB Q9WMX2
PROPERTY: IC50
Number first, unit second: that is the form wanted.

COMPOUND | IC50
CC(C)(C)c1ccc(S(=O)(=O)N2CC(=O)N(c3cc(-c4ccccc4)sc3C(=O)O)C(C3CCCCC3)C2)cc1 (stereo not drawn) [Compound 105] | 2 nM
COc1ccc(S(=O)(=O)N2CC(=O)N(c3cc(-c4ccccc4)sc3C(=O)O)C(C3CCCCC3)C2)cc1OC (stereo not drawn) [Compound 102] | 4.5 nM
CCc1ccc(S(=O)(=O)N2CC(=O)N(c3cc(-c4ccc(C)cc4)sc3C(=O)O)[C@H](C3CCCCC3)C2)cn1 [Compound 304] | 5 nM

Req: Give IC50 only, for Cn1ccc(S(=O)(=O)N2CC(=O)N(c3cc(-c4ccccc4)sc3C(=O)O)C(C3CCCCC3)C2)n1 (stereo not drawn) [Compound 62] , using UniProtKB Q9WMX2 data.
Resp: 11 nM

Req: Give IC50 only, for O=C(O)c1sc(-c2ccc(F)cc2)cc1N1C(=O)CN(S(=O)(=O)c2ccc(N3CCCCCC3)nc2)C[C@H]1C1CCCCC1 [Compound 285] , using UniProtKB Q9WMX2 data.
Resp: 2 nM

Req: Give IC50 only, for CC(C)(C)C#Cc1cc(N2C(=O)[C@H](CCCCO)OC[C@H]2C2CCCCC2)c(C(=O)O)s1 [Compound 338] , using UniProtKB Q9WMX2 data.
Resp: 31 nM
